Assay: Selectivity index, ratio of CC50 for human MT4 cells to EC50 for HIV2 ROD
Format: toxicity, cell-based
Conditions: read-out: Ratio CC50/EC50
Entries annotated with measured selectivity ratio
VALUE KIND: selectivity ratio

• Cn1cc(C(=O)O)c(=O)c2ccc(N3CCN(c4cccc(C(F)(F)F)c4)CC3)nc21 = < 1
• Cn1cc(C(=O)O)c(=O)c2ccc(N3CCN(c4nccs4)CC3)nc21 = > 136
• Cn1cc(C(=O)O)c(=O)c2ccc(N3CCN(c4ccccn4)CC3)nc21 = 18
• Cn1cc(C(=O)O)c(=O)c2ccc(N3CCN(c4nc5ccccc5s4)CC3)nc21 = 522

###

Recorded selectivity ratio by entry
Assay: Selectivity index, ratio of CC50 for human MT4 cells to EC50 for HIV1 3B
Assay type: toxicity, cell-based
Conditions: read-out: Ratio CC50/EC50
VALUE KIND: selectivity ratio

- Cn1cc(C(=O)O)c(=O)c2ccc(N3CCN(c4ccccn4)CC3)nc21: 16
- Cn1cc(C(=O)O)c(=O)c2ccc(N3CCN(c4nc5ccccc5s4)CC3)nc21: 457

###

Test: Selectivity index, ratio of CC50 for TNF-alpha-stimulated human OM10.1 cells to EC50 for HIV1
Type: toxicity
Details: read-out: Ratio CC50/EC50
VALUE KIND: selectivity ratio

* Cn1cc(C(=O)O)c(=O)c2ccc(N3CCN(c4nc5ccccc5s4)CC3)nc21 | 422

###

Experiment: Selectivity index, ratio of CC50 for human MT4 cells to EC50 for HIV1 3B mutant after 60 passage resistance selection by MTT assay
Type: toxicity, cell-based
Settings: read-out: Ratio CC50/EC50
VALUE KIND: selectivity ratio

- Cn1cc(C(=O)O)c(=O)c2ccc(N3CCN(c4nc5ccccc5s4)CC3)nc21: 1420

###

Assay: Selectivity index, ratio of CC50 for human MT4 cells to EC50 for HIV1 3B mutant
Format: toxicity, cell-based
Details: read-out: Ratio CC50/EC50
VALUE KIND: selectivity ratio

* Cn1cc(C(=O)O)c(=O)c2ccc(N3CCN(c4nc5ccccc5s4)CC3)nc21 | 1280

###

Assay: Cytotoxicity against PMA-stimulated human OM10.1 cells by MTT assay
Assay type: cell-based
VALUE KIND: CC50 (µg/mL)

- Cn1cc(C(=O)O)c(=O)c2ccc(N3CCN(c4nc5ccccc5s4)CC3)nc21: 0.75

###

Test: Selectivity index, ratio of CC50 for TNF-alpha-stimulated human U1 cells to EC50 for HIV1
Type: toxicity, cell-based
Conditions: read-out: Ratio CC50/EC50
VALUE KIND: selectivity ratio

- Cn1cc(C(=O)O)c(=O)c2ccc(N3CCN(c4nc5ccccc5s4)CC3)nc21: 330

###

Assay: Cytotoxicity against human MT4 cells by MTT assay
Type: cell-based
Recorded CC50, one value per entry.
VALUE KIND: CC50 (µg/mL)

- Cn1cc(C(=O)O)c(=O)c2ccc(N3CCN(c4ccccn4)CC3)nc21: 9.93
- Cn1cc(C(=O)O)c(=O)c2ccc(N3CCN(c4cccc(C(F)(F)F)c4)CC3)nc21: 0.41
- Cn1cc(C(=O)O)c(=O)c2ccc(N3CCN(c4nc5ccccc5s4)CC3)nc21: 12.1

###

Assay: Cytotoxicity against human PBMC by MTT assay
Assay type: cell-based
Settings: in the assay text read “trypan blue exclusion method” for “MTT assay”
VALUE KIND: CC50

- Cn1cc(C(=O)O)c(=O)c2ccc(N3CCN(c4nc5ccccc5s4)CC3)nc21: 10.3 µg/mL
